So I've got a bunch of molecules here, and I need their CSE activity (AZMC probe assay) % of activation values.
Molecular target: recombinant human CSE (Homo sapiens)
Sequence (P32929 whole entry): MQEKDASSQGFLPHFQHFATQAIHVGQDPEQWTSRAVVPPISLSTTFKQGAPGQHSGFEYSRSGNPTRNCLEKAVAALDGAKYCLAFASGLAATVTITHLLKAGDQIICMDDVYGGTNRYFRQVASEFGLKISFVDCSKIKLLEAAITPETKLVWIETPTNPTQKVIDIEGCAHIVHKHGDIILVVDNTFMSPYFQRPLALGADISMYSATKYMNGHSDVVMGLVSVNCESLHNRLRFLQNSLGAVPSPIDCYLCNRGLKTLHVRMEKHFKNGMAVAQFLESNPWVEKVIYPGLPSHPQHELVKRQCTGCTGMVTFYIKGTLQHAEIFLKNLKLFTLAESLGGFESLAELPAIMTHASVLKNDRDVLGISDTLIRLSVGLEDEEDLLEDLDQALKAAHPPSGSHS
Experiment: CSE activity (AzMC probe assay), H2S production by recombinant human CSE
Assay type: biochemical
Conditions: (RFU compound max - RFU compound 0/RFU CSE 2 ug - RFU compound 0)*100
# value in %; strip the unit string

Ask: Consider the molecule O=C(Nc1cnn(CC2CCCO2)c1)c1cccc2[nH]ccc12 (stereo not shown) and give its recorded CSE activity (AZMC probe assay) % of activation.
Reply: 73

Ask: Quote CSE activity (AZMC probe assay) % of activation reported for O=C(Nc1cnn(CC2CCCO2)c1)c1ccccc1 (stereo not shown) please.
Reply: 62

Ask: Quote CSE activity (AZMC probe assay) % of activation reported for N#Cc1cccc(C(=O)Nc2cnn(CC3CCCO3)c2)c1 (stereo not shown) please.
Reply: 59

Ask: State, in one line, measured CSE activity (AZMC probe assay) % of activation of O=[N+]([O-])c1ccc(Nc2cnn(CC3CCCO3)c2)cc1 (stereo not shown)
Reply: 109

Ask: Answer with reported CSE activity (AZMC probe assay) % of activation of CCn1cnc2c(Nc3cnn(Cc4ccccn4)c3)ncnc21
Reply: 35

Ask: Kindly indicate its recorded CSE activity (AZMC probe assay) % of activation. Item: CCn1cnc2c(Nc3cnn(CCOC)c3)ncnc21
Reply: 106

Ask: Report CSE activity (AZMC probe assay) % of activation for O=C(Nc1cnn(CC2CCCO2)c1)c1cccc(F)c1 (stereo not shown)
Reply: 33

Ask: Output CSE activity (AZMC probe assay) % of activation of O=C(Nc1cnn(CC2CCCO2)c1)c1ccc2ccccc2c1 (stereo not shown)
Reply: 65

Ask: Complete the entry with CSE activity (AZMC probe assay) % of activation for CCCn1cc(Nc2ncnc3c2ncn3CC)cn1
Reply: 59

Ask: Report CSE activity (AZMC probe assay) % of activation for c1cc(Nc2cnn(CC3CCCO3)c2)ncn1 (stereo not shown)
Reply: 46

Ask: Please report CSE activity (AZMC probe assay) % of activation for the following molecule: c1cnc(Nc2cnn(CC3CCCCC3)c2)nc1
Reply: 61

Ask: Given the molecule CCn1cnc2c(Nc3cnn(CC4CCCO4)c3)ncnc21 (stereo not shown) , write its reported CSE activity (AZMC probe assay) % of activation.
Reply: 28

Ask: Supply measured CSE activity (AZMC probe assay) % of activation of CCn1cnc2c(Nc3cnn(C)c3)ncnc21 in your reply.
Reply: 56

Ask: Entry CCn1cnc2c(Nc3cnn(CC4CCCCC4)c3)ncnc21 needs its CSE activity (AZMC probe assay) % of activation filled in; supply it.
Reply: 39

Ask: Check the records and state CSE activity (AZMC probe assay) % of activation for c1cnc(Nc2cnn(CC3CCCO3)c2)nc1 (stereo not shown)
Reply: 76

Ask: Respond only with CSE activity (AZMC probe assay) % of activation recorded for Cn1cc(Nc2ncccn2)cn1
Reply: 57
